- assayName: Toxicity liver stage against HepG2, at 10uM
- Assay type: cell-based
- Set-up: test concentration 10 uM, cell line HepG2-A16-CD81EGFP
- conditionNotes: human, HepG2-A16-CD81EGFP cells; read-out: INHIBITION
readoutLabel: cytotoxicity at 10 µM
Reply with the number and its unit after it.

**Query** Quick one: cytotoxicity at 10 µM for CCN(c1ccc(C(=O)N2CCCCC2)cc1)S(=O)(=O)CC ?
**Result** 1.85%

**Query** Continue with CS(=O)(=O)N1C[C@H](NC(=O)c2ccno2)[C@@H]2OCCC[C@@H]21
**Result** -112%

**Query** Continue with CN1CC(=O)N(c2cccnc2)CC12CCN(C(=O)c1cccnc1)C2 (stereo not drawn)
**Result** 2.25%

**Query** Continue with CCn1cc(CN2CCCC2c2nc(-c3ccccc3)no2)cc1C#N (stereo not drawn)
**Result** 0.165%

**Query** Continue with O=c1[nH]c(CN2CCCC(Cn3cncn3)C2)nc2ccccc12 (stereo not drawn)
**Result** -12.4%

**Query** Continue with C[C@@H]1C[C@H](C(F)(F)F)n2nc(C3CCN(S(C)(=O)=O)CC3)cc2N1
**Result** -16.9%

**Query** Continue with Cc1cccc(C2CCCN(C(=O)CN3C(=O)CCNC3=O)C2)c1 (stereo not drawn)
**Result** -2.56%

**Query** Continue with CN(CC(O)C1CC1)C(=O)Nc1ccc(F)c(-n2cccc2)c1 (stereo not drawn)
**Result** 2.2%

**Query** Continue with Cn1cc(NC(=O)Nc2ccccn2)cc(Cl)c1=O
**Result** -7.82%

**Query** Continue with Cc1cc(C)n(C2CCCN(C(=O)CCNS(C)(=O)=O)C2)n1 (stereo not drawn)
**Result** 6.62%

**Query** Continue with COc1ccc(CC(=O)N2CCC(c3nnc4n3CCC4)CC2)cc1F
**Result** -1.65%

**Query** Continue with Cc1ccc(C(=O)Nc2cn[nH]c2)cc1F
**Result** -14.7%

**Query** Continue with Cc1ccc(CNC2CCN(CCc3ccncc3)CC2)cc1C
**Result** -8.92%

**Query** Continue with Cc1cccc(C(=O)N2CCc3ncnc(C4CCOC4)c3CC2)n1 (stereo not drawn)
**Result** -69.8%

**Query** Continue with CN(C)CCNC(=O)CCn1ncc2c(Cl)cccc21
**Result** 5.92%

**Query** Continue with Cn1nc2c(cc1=O)CN(Cc1nnc(-c3ccc(F)cc3)o1)CC2
**Result** -9.47%

**Query** Continue with Cc1nn(-c2ccccc2)c(C)c1CNC(=O)NC1CC(=O)N(C)C1 (stereo not drawn)
**Result** -2.17%

**Query** Continue with CCc1cc(NCc2ccc(-n3cncn3)c(C)c2)n(C)n1
**Result** -52.6%

**Query** Continue with Cc1cc(C)c(S(N)(=O)=O)cc1C(=O)NCCN1CCC(C)CC1
**Result** -0.77%

**Query** Continue with CC(CCSc1ccccc1)N1CCN(C(=O)c2cccs2)CC1 (stereo not drawn)
**Result** 25.5%

**Query** Continue with CC1=CCN(S(=O)(=O)c2cccc(C(=O)N3CCOCC3)c2)CC1
**Result** 4.9%

**Query** Continue with Cc1nc(C)c(CNC(=O)NC(c2nnc3n2CCC3)C(C)C)s1 (stereo not drawn)
**Result** -1.79%

**Query** Continue with CC(CCc1ccco1)NC(=O)Nc1cc(C(F)(F)F)c[nH]c1=O (stereo not drawn)
**Result** -6.9%

These data points were gathered from ChEMBL document CHEMBL4513216.
